# target: T1, LIN7A, O14910
# T1 sequence (O14910 103-200, limits assumed, looked up): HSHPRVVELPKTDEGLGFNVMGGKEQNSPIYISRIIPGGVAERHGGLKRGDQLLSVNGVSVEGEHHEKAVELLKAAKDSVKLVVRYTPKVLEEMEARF
# assay_method_text: holdup assay
# Set-up: key: below the threshold = too weak to quantify, mostly under pKd 3.1 to 4
# condition_set: plain residues with an end cap or a label only (N-terminal biotin on a linker: ado-ado)
quantity_measured: pKd

binder="KKTPVSRSHL [SLC22A3, O75751]" obs_value="below the threshold"
binder="QLGSPTADLA [SIPA1, Q96FS4]" obs_value="below the threshold"
binder="PSVYSRSQYV [CLDN8, P56748]" obs_value="below the threshold"
binder="TNSKQGETTV [FZD1, Q9UP38]" obs_value=3.72
binder="PLATCDETSI [SEMA4F, O95754]" obs_value="below the threshold"
